experiment: pilot intravenous pharmacokinetic study in rats; format: in vivo; settings: male, Sprague-Dawley, rat, plasma, 5 mg/kg
result-type: MRT (h)
One number for each entry, in h.

Task item: Please look at this molecule and report its MRT: `S=c1sc2ccccc2n1CCCCN1CCN(C2CCCCC2)CC1`
Reply: 1.5

---

assay: pilot intravenous pharmacokinetic study in rats; type: in vivo; settings: male, Sprague-Dawley, rat, plasma, 5 mg/kg, Elimination half-life (t1/2), rats, single intravenous dose of 5 mg/kg, n = 6, mean ± SD
result-type: half-life (min)
One number for each entry, in min.

Task item: Please look at this molecule and report its half-life: `S=c1sc2ccccc2n1CCCCN1CCN(C2CCCCC2)CC1`
Reply: 66

---

assay: pilot intravenous pharmacokinetic study in rats; assay type: in vivo; details: male, Sprague-Dawley, rat, plasma, 5 mg/kg
result-type: AUC(0-inf)
Give the number first and the unit second.

Task item: Please look at this compound and report its AUC(0-inf): `S=c1sc2ccccc2n1CCCCN1CCN(C2CCCCC2)CC1`
Reply: 802 ng·h/mL

---

experiment: pilot intravenous pharmacokinetic study in rats; assay type: in vivo; details: male, Sprague-Dawley, rat, plasma, 5 mg/kg
result-type: Cmax
Give the number first and the unit second.

Task item: Please look at this compound and report its Cmax: `S=c1sc2ccccc2n1CCCCN1CCN(C2CCCCC2)CC1`
Reply: 1300 ng/mL

Each recorded value in this set is attributed to paper PMC3992999.
